Give Kd for every item shown.
Biological target: T1, human glypican-3 (GPC3) (human, UniProt P51654 25-554)
T1 construct: Endogenous on JHH-7, JHH-5, HepG2 and NCI-H446 tumour cells, or transiently expressed on CHO-S cells from a pTT5 plasmid; also called hGPC3; huGPC3
Experiment: flow cytometry on JHH-7 cells; antibody in mouse plasma, day 0
Could you write the number and then its unit?

If you can, please state the reported Kd value of H18L6_LC_G34A mAb, v40212 (antibody, human IgG1, kappa, V domains shown, M3-H18L6 chains with the stated light chain point mutation, IgG1/kappa) VH: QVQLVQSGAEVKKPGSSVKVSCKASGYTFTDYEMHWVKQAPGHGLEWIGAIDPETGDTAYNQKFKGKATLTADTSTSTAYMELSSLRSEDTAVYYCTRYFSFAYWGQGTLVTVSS VL: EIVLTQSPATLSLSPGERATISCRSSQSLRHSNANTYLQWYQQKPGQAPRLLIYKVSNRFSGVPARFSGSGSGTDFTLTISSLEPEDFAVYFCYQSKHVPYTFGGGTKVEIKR .
0.36 nM

Same question for H18L6_LC_G34E mAb, v40204 (antibody, human IgG1, kappa, V domains shown, M3-H18L6 chains with the stated light chain point mutation, IgG1/kappa) VH: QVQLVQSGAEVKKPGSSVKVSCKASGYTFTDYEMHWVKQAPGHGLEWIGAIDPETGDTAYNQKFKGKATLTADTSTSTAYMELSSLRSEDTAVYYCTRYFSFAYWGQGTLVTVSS VL: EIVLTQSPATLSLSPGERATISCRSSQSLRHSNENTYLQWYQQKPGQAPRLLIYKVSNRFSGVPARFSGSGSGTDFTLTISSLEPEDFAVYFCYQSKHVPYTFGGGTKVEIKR please.
0.26 nM

Same question for H18L6_LC_G34R mAb, v40206 (antibody, human IgG1, kappa, V domains shown, Full-size IgG1/kappa) VH: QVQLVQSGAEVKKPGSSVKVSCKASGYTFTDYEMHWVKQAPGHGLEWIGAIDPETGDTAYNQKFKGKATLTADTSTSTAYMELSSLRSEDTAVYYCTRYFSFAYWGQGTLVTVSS VL: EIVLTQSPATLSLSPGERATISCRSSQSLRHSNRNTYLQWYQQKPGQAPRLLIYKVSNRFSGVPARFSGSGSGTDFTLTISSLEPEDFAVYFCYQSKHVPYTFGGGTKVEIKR please.
0.15 nM
